# Protocol Description: Plasma pharmacokinetics of DEBIO1143 in patients (LC-MS/MS)
# Format: in vivo, human
# Stated Conditions: human, plasma, oral, 5 mg, day 5, n=1; read-out: T max
# Method: Pharmacokinetic samples were taken from all patients on day 1 (predose, 0.5, 1, 2, 3, 4, 6, 8, 12, 18 h postdose) and on day 5 (predose, 0.5, 1, 2, 3, 4, 6, 8 h postdose) of the first cycle. […] C max and t max were determined by direct assessment of the observed concentration versus time curves. […] For the detection of cIAP-1 in paraffin-embedded human tissue, a validated immunohistochemical (IHC) assay was used. […] Plasma biomarkers were measured through commercial ELISAs. […]
Recorded Endpoint: Tmax

{"Compound Structure String": "CN[C@@H](C)C(=O)N[C@H]1CN(C(=O)CC(C)C)CC[C@H]2CC[C@@H](C(=O)NC(c3ccccc3)c3ccccc3)N2C1=O", "Recorded Endpoint": "Tmax", "Observed Value": "1.6 h"}

###

# Protocol Description: Plasma pharmacokinetics of DEBIO1143 in patients (LC-MS/MS)
# Type: in vivo, human
# Stated Conditions: human, plasma, oral, 260 mg, day 5, n=3, mean (SD)

{"Compound Structure String": "CN[C@@H](C)C(=O)N[C@H]1CN(C(=O)CC(C)C)CC[C@H]2CC[C@@H](C(=O)NC(c3ccccc3)c3ccccc3)N2C1=O", "Cmax / ng/mL": 2760}

###

# Protocol Description: Plasma pharmacokinetics of DEBIO1143 in patients (LC-MS/MS)
# Format: in vivo, human
# Stated Conditions: human, plasma, oral, 260 mg, day 5, n=3, mean (SD)
Recorded Endpoint: AUC(0-inf) (ng·h/mL)

{"Compound Structure String": "CN[C@@H](C)C(=O)N[C@H]1CN(C(=O)CC(C)C)CC[C@H]2CC[C@@H](C(=O)NC(c3ccccc3)c3ccccc3)N2C1=O", "Measurement Units": "ng·h/mL", "Observed Value": 11700}

###

# Protocol Description: Plasma pharmacokinetics of DEBIO1143 in patients (LC-MS/MS)
# Format: in vivo, human
# Stated Conditions: human, plasma, oral, 80 mg, day 1, n=3, mean (SD)
Recorded Endpoint: AUC(0-inf) (ng·h/mL)

{"Compound": "CN[C@@H](C)C(=O)N[C@H]1CN(C(=O)CC(C)C)CC[C@H]2CC[C@@H](C(=O)NC(c3ccccc3)c3ccccc3)N2C1=O [DEBIO1143]", "Observed Value": 6660}

###

# Protocol Description: Plasma pharmacokinetics of DEBIO1143 in patients (LC-MS/MS)
# Assay type: in vivo, human
# Stated Conditions: human, plasma, oral, 400 mg, day 5, n=3, mean (SD)
# Description: Pharmacokinetic samples were taken from all patients on day 1 (predose, 0.5, 1, 2, 3, 4, 6, 8, 12, 18 h postdose) and on day 5 (predose, 0.5, 1, 2, 3, 4, 6, 8 h postdose) of the first cycle. […] C max and t max were determined by direct assessment of the observed concentration versus time curves. […] For the detection of cIAP-1 in paraffin-embedded human tissue, a validated immunohistochemical (IHC) assay was used. […] Plasma biomarkers were measured through commercial ELISAs. […]

{"Compound Structure String": "CN[C@@H](C)C(=O)N[C@H]1CN(C(=O)CC(C)C)CC[C@H]2CC[C@@H](C(=O)NC(c3ccccc3)c3ccccc3)N2C1=O", "Measurement Units": "ng/mL", "Cmax": 5540}

###

# Protocol Description: Plasma pharmacokinetics of DEBIO1143 in patients (LC-MS/MS)
# Type: in vivo, human
# Stated Conditions: human, plasma, oral, 400 mg, day 1, n=3, mean (SD); read-out: T 1/2 (converted)

{"Compound Structure String": "CN[C@@H](C)C(=O)N[C@H]1CN(C(=O)CC(C)C)CC[C@H]2CC[C@@H](C(=O)NC(c3ccccc3)c3ccccc3)N2C1=O", "half-life, min": 376}

###

# Protocol Description: Plasma pharmacokinetics of DEBIO1143 in patients (LC-MS/MS)
# Format: in vivo, human
# Stated Conditions: human, plasma, oral, 80 mg, day 5, n=3, mean (SD)
# Procedure: Pharmacokinetic samples were taken from all patients on day 1 (predose, 0.5, 1, 2, 3, 4, 6, 8, 12, 18 h postdose) and on day 5 (predose, 0.5, 1, 2, 3, 4, 6, 8 h postdose) of the first cycle. […] C max and t max were determined by direct assessment of the observed concentration versus time curves. […] For the detection of cIAP-1 in paraffin-embedded human tissue, a validated immunohistochemical (IHC) assay was used. […] Plasma biomarkers were measured through commercial ELISAs. […]
Recorded Endpoint: Cmax

{"Molecule": "CN[C@@H](C)C(=O)N[C@H]1CN(C(=O)CC(C)C)CC[C@H]2CC[C@@H](C(=O)NC(c3ccccc3)c3ccccc3)N2C1=O [DEBIO1143]", "Recorded Endpoint": "Cmax", "Observed Value": "1670 ng/mL"}

###

# Protocol Description: Plasma pharmacokinetics of DEBIO1143 in patients (LC-MS/MS)
# Assay type: in vivo, human
# Stated Conditions: human, plasma, oral, 180 mg, day 1, n=7, median (min–max); read-out: T max
Recorded Endpoint: Tmax (h)

{"Compound Structure String": "CN[C@@H](C)C(=O)N[C@H]1CN(C(=O)CC(C)C)CC[C@H]2CC[C@@H](C(=O)NC(c3ccccc3)c3ccccc3)N2C1=O", "Observed Value": 2}

###

# Protocol Description: Plasma pharmacokinetics of DEBIO1143 in patients (LC-MS/MS)
# Type: in vivo, human
# Stated Conditions: human, plasma, oral, 400 mg, day 1, n=3, mean (SD)
Recorded Endpoint: AUC(0-inf)

{"Compound Structure String": "CN[C@@H](C)C(=O)N[C@H]1CN(C(=O)CC(C)C)CC[C@H]2CC[C@@H](C(=O)NC(c3ccccc3)c3ccccc3)N2C1=O", "Observed Value": "27000 ng·h/mL"}

###

# Protocol Description: Plasma pharmacokinetics of DEBIO1143 in patients (LC-MS/MS)
# Format: in vivo, human
# Stated Conditions: human, plasma, oral, 120 mg, day 1, n=3, median (min–max); read-out: T max

{"Compound Structure String": "CN[C@@H](C)C(=O)N[C@H]1CN(C(=O)CC(C)C)CC[C@H]2CC[C@@H](C(=O)NC(c3ccccc3)c3ccccc3)N2C1=O", "Tmax": "1 h"}

###

# Protocol Description: Plasma pharmacokinetics of DEBIO1143 in patients (LC-MS/MS)
# Format: in vivo, human
# Stated Conditions: human, plasma, oral, 900 mg, day 5, n=6, median (min–max); read-out: T max
Recorded Endpoint: Tmax (h)

{"Compound": "CN[C@@H](C)C(=O)N[C@H]1CN(C(=O)CC(C)C)CC[C@H]2CC[C@@H](C(=O)NC(c3ccccc3)c3ccccc3)N2C1=O [DEBIO1143]", "Recorded Endpoint": "Tmax", "Observed Value": 1.5}

###

# Protocol Description: Plasma pharmacokinetics of DEBIO1143 in patients (LC-MS/MS)
# Format: in vivo, human
# Stated Conditions: human, plasma, oral, 400 mg, day 5, n=3, mean (SD); read-out: T 1/2 (converted)
Recorded Endpoint: half-life

{"Compound Structure String": "CN[C@@H](C)C(=O)N[C@H]1CN(C(=O)CC(C)C)CC[C@H]2CC[C@@H](C(=O)NC(c3ccccc3)c3ccccc3)N2C1=O", "Observed Value": "3.7 h"}

###

# Protocol Description: Plasma pharmacokinetics of DEBIO1143 in patients (LC-MS/MS)
# Assay type: in vivo, human
# Stated Conditions: human, plasma, oral, 180 mg, day 5, n=7, median (min–max); read-out: T max

{"Compound": "CN[C@@H](C)C(=O)N[C@H]1CN(C(=O)CC(C)C)CC[C@H]2CC[C@@H](C(=O)NC(c3ccccc3)c3ccccc3)N2C1=O [DEBIO1143]", "Measurement Units": "h", "Tmax": 2}

###

# Protocol Description: Plasma pharmacokinetics of DEBIO1143 in patients (LC-MS/MS)
# Assay type: in vivo, human
# Stated Conditions: human, plasma, oral, 80 mg, day 5, n=3, mean (SD)

{"Compound Structure String": "CN[C@@H](C)C(=O)N[C@H]1CN(C(=O)CC(C)C)CC[C@H]2CC[C@@H](C(=O)NC(c3ccccc3)c3ccccc3)N2C1=O", "AUC(0-inf) (ng·h/mL)": 5920}

###

# Protocol Description: Plasma pharmacokinetics of DEBIO1143 in patients (LC-MS/MS)
# Assay type: in vivo, human
# Stated Conditions: human, plasma, oral, 180 mg, day 1, n=7, mean (SD)
Recorded Endpoint: AUC(0-t) (ng·h/mL)

{"Compound": "CN[C@@H](C)C(=O)N[C@H]1CN(C(=O)CC(C)C)CC[C@H]2CC[C@@H](C(=O)NC(c3ccccc3)c3ccccc3)N2C1=O [DEBIO1143]", "Recorded Endpoint": "AUC(0-t)", "Observed Value": 10600}

###

# Protocol Description: Plasma pharmacokinetics of DEBIO1143 in patients (LC-MS/MS)
# Type: in vivo, human
# Stated Conditions: human, plasma, oral, 120 mg, day 1, n=3, mean (SD)

{"Compound Structure String": "CN[C@@H](C)C(=O)N[C@H]1CN(C(=O)CC(C)C)CC[C@H]2CC[C@@H](C(=O)NC(c3ccccc3)c3ccccc3)N2C1=O", "Measurement Units": "ng·h/mL", "AUC(0-inf)": 7460}
